measurementDescription: Food-effect crossover bioavailability study, 600 mg fed vs fasted, healthy adult subjects (Example 2)
Format: in vivo, human
conditionsUsed: both sexes, human, plasma, po, 600 mg, 600 mg PO, fasted, Min
testReadout: concentration at 12 hours (ng/mL)
Dear colleague, please return just the value in ng/mL, with no unit written.

query: Can you share its concentration at 12 hours? I mean this compound: CC(C)(C)NC(=O)N[C@H](C(=O)N1C[C@H]2[C@@H]([C@H]1C(=O)NC(CC1CCC1)C(=O)C(N)=O)C2(C)C)C(C)(C)C (mixture of isomers) [Formula Ia]
result: 3.11

====

measurementDescription: Phase 1 rising-single-dose pharmacokinetic study in healthy adult subjects (Example 1)
Format: in vivo, human
conditionsUsed: human, plasma; single oral dose 400 mg, mean, n = 6
testReadout: Vd/F (L)
Dear colleague, please return just the value in L, with no unit written.

query: Can you share its Vd/F? I mean this molecule: CC(C)(C)NC(=O)N[C@H](C(=O)N1C[C@H]2[C@@H]([C@H]1C(=O)NC(CC1CCC1)C(=O)C(N)=O)C2(C)C)C(C)(C)C (mixture of isomers)
result: 5400

====

measurementDescription: Food-effect crossover bioavailability study, 600 mg fed vs fasted, healthy adult subjects (Example 2)
Assay type: in vivo, human
conditionsUsed: both sexes, human, plasma, po, 600 mg, 600 mg PO, fed, Max
testReadout: concentration at 8 hours (ng/mL)
Dear colleague, please return just the value in ng/mL, with no unit written.

query: Can you share its concentration at 8 hours? I mean this molecule: CC(C)(C)NC(=O)N[C@H](C(=O)N1C[C@H]2[C@@H]([C@H]1C(=O)NC(CC1CCC1)C(=O)C(N)=O)C2(C)C)C(C)(C)C (mixture of isomers) [Formula Ia]
result: 949

====

measurementDescription: Food-effect crossover bioavailability study, 600 mg fed vs fasted, healthy adult subjects (Example 2)
Type: in vivo, human
conditionsUsed: both sexes, human, plasma, po, 600 mg, 600 mg PO, fed, n = 20; read-out: AUC(l), model-based (least square) mean
testReadout: AUC (ng·h/mL)
Dear colleague, please return just the value in ng·h/mL, with no unit written.

query: Can you share its AUC? I mean this molecule: CC(C)(C)NC(=O)N[C@H](C(=O)N1C[C@H]2[C@@H]([C@H]1C(=O)NC(CC1CCC1)C(=O)C(N)=O)C2(C)C)C(C)(C)C (mixture of isomers)
result: 3530

====

measurementDescription: Phase 1 rising-single-dose pharmacokinetic study in healthy adult subjects (Example 1)
Assay type: in vivo, human
conditionsUsed: human, plasma; single oral dose 50 mg, median, n = 6; read-out: Tmax
testReadout: Tmax (h)
Dear colleague, please return just the value in h, with no unit written.

query: Can you share its Tmax? I mean this compound: CC(C)(C)NC(=O)N[C@H](C(=O)N1C[C@H]2[C@@H]([C@H]1C(=O)NC(CC1CCC1)C(=O)C(N)=O)C2(C)C)C(C)(C)C (mixture of isomers)
result: 1.5

====

measurementDescription: Phase 1 rising-single-dose pharmacokinetic study in healthy adult subjects (Example 1)
Type: in vivo, human
conditionsUsed: human, plasma, po, 800 mg, single oral dose 800 mg, mean, n = 6; read-out: AUC(tf)
testReadout: AUC (ng·h/mL)
Dear colleague, please return just the value in ng·h/mL, with no unit written.

query: Can you share its AUC? I mean this compound: CC(C)(C)NC(=O)N[C@H](C(=O)N1C[C@H]2[C@@H]([C@H]1C(=O)NC(CC1CCC1)C(=O)C(N)=O)C2(C)C)C(C)(C)C (mixture of isomers) [Formula Ia]
result: 2300
